Assay Notes: Antiproliferative activity against human WM793 cells after 3 days by SRB assay
Assay type: functional
Test Settings: Homo sapiens, WM793, 72 h; read-out: ED50 (the source's name)
This listing pairs compounds with measured EC50.
Measured Metric: EC50 (µM)

Compound	Measured Metric	Comparison Operator	Result Number
C=C(C)[C@@H]1CC[C@]2(COC(=O)C(CC)[n+]3ccc(N(C)C)cc3)CC[C@]3(C)[C@H](CC[C@@H]4[C@@]5(C)CC[C@H](OC(=O)C(CC)[n+]6ccc(N(C)C)cc6)C(C)(C)[C@@H]5CC[C@]43C)[C@@H]12 (some centres undefined)	EC50	=	0.5
C=C(C)[C@@H]1CC[C@]2(CO)CC[C@]3(C)[C@H](CC[C@@H]4[C@@]5(C)CC[C@H](OC(=O)C[n+]6ccc(N(C)C)cc6)C(C)(C)[C@@H]5CC[C@]43C)[C@@H]12	EC50	=	2.5
C=C(C[n+]1ccc(N(C)C)cc1)[C@@H]1CC[C@]2(C(=O)O)CC[C@]3(C)[C@H](CC[C@@H]4[C@@]5(C)CC[C@H](OC(=O)C[n+]6ccc(N(C)C)cc6)C(C)(C)[C@@H]5CC[C@]43C)[C@@H]12	EC50	>	4.4
C=C(C)[C@@H]1CC[C@]2(COC(=O)CCC[n+]3ccc(N(C)C)cc3)CC[C@]3(C)[C@H](CC[C@@H]4[C@@]5(C)CC[C@H](OC(=O)CCC[n+]6ccc(N(C)C)cc6)C(C)(C)[C@@H]5CC[C@]43C)[C@@H]12	EC50	=	1.3
